Values compiled from patent US20250270328A1.

Listing: koff of selected binders
# measured-target: T1, human KLRB1 protein extracellular domain (ECD) (human, UniProt Q12918 67-225)
# T1 construct: range 67-225; The ELISA and SPR text says only 'human KLRB1 ECD'; also called human KLRB1 ECD; CD161
# T1 sequence (looked up): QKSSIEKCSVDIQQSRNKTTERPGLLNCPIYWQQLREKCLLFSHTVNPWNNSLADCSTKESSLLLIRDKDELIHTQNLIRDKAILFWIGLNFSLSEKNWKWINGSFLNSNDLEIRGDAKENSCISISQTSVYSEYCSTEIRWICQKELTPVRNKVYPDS
# assay-text: SPR, human KLRB1 ECD; format not stated
Please give a number only; it is taken to be in s⁻¹.

A selection of reference data follows.
* 10A3D6C109V-chimeric (antibody, human IgG1, V domains shown, Chimeric mutated variant; the name hIgG1k indicates human IgG1 kappa constant regions; also called 10A3D6C109VhIgG1k) VH: EVQLQQSGPELVKPGASMKISCKASGYSFTGYTMNWVKQSHGKNLEWIGLINPNTGGTYYNQKFKDKATLTVDKSSSTAYMELLSLTSEDSAVYYCARLGDNYRGYFDVWGQGTTLTVSS VL: DIVMTQSHKFMSTSVGDRVNITCKASQDVGTAVVWYQQTPGQSPKVLIDWASIRHTGVPDRFTGSGSGTDFTLTISSVQSEDLADYFCQQYSTYLYTFGGGTKLEIK | 0.000293
* 10A3D6C109Chum1.3 (antibody, V domains shown, Humanized variant of 10A3D6 made by CDR grafting) VH: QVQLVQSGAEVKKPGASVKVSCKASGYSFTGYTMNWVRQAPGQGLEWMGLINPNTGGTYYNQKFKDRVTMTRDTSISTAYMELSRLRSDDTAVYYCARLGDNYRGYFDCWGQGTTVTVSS VL: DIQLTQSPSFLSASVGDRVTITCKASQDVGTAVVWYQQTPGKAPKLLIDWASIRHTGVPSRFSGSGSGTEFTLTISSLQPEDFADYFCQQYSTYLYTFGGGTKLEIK | 0.0001

The record that follows has no koff shown yet.
Item 10A3D6C109Chum3.1 (antibody, V domains shown, Humanized variant of 10A3D6 made by CDR grafting) VH: QVQLVQSGAEVKKPGASVKVSCKASGYSFTGYTMNWVRQAHGQNLEWIGLINPNTGGTYYNQKFKDRVTLTVDTSISTAYMELSRLRSDDTAVYYCARLGDNYRGYFDCWGQGTTVTVSS VL: DIQLTQSPSFLSASVGDRVTITCKASQDVGTAVVWYQQKPGKAPKLLIYWASIRHTGVPSRFSGSGSGTEFTLTISSLQPEDFATYYCQQYSTYLYTFGGGTKLEIK has what recorded koff? 0.00721
